# target: T1, recombinant human VEGF165 (human, UniProt P15692-4 27-191)
# T1 construct: also called hVEGF165; rhVEGF165
# T1 sequence (P15692 other isoform, or with tags, fused parts or gaps limits assumed): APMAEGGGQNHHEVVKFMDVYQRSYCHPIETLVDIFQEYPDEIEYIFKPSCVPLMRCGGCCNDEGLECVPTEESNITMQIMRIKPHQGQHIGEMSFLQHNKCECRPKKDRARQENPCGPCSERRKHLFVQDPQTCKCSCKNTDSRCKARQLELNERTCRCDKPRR
# procedure.text: Biacore, periplasmic extract on hVEGF165 chip
result.type: Binding level (RU)
The reply should be a number in RU, with the unit left off.

binder | Binding level (RU)
VEGFBII39G04 (VHH, periplasmic extract) VHH: EVPLVESGGGLVQAGDSLRLSCAASGRTFSSYSMGWFRQAQGKEREFVVAISSSGNYKYDSASLEGRFTISRDNTKNTVYLQINSLKPEDTAVYYCAASRAYGSSRLRLGDTYDYWGQGTQVTVSS | 210
VEGFBII40G07 (VHH, periplasmic extract) VHH: EVQLVESGGGLVQPGDSLKLSCAFSGRTFSSYSMGWFRQAQGKEREFVVAISSSGGYIYDSVSLEGRFTISRDNTKNAVYLQTPSLKPEDTADYYCAASRAYGSSRLRLADTYDYWGQGTQVTVSS | 139
VEGFBII61A01 (VHH, periplasmic extract) VHH: EVQLVESGGGLVQAGGSLRLSCAFSGRTFSSYSMGWFRQAQGKEREFVVAISSGGYKYDAVSLEGRFTISRDNTKNTVYLQTPSLKPEDTAVYYCAASRAYASSRLRLADTYDYWGQGTQVTVSS | 275

Short answer for VEGFBII42A05 (VHH, periplasmic extract) VHH: EVQLVESGGGLVQPGDSLKLSCAFSGRTFSSYSMGWFRQAQGKEREFVVAISSSGGYIYDSVSLEGRFTISRDNTKNTVYLQMPSLKPEDTADYYCAASRAYGSSRLRLADTYDYWGQGTQVTVSS : Binding level (RU) was 118

Short answer for VEGFBII42F11 (VHH, periplasmic extract) VHH: EVQLVESGGGLVQPGDSLKLSCVASGRTSSSYSVGWFRQAQGKEREFVVAISSGGYIYDSVSLQGRFTISRDNTKNTVYLQTPSLKPEDTAVYYCAASRAYGSSRLRLADTYDYWGQGTQVTVSS : Binding level (RU) was 100

Short answer for VEGFBII27D08 (VHH, periplasmic extract) VHH: EVQLVESGGGLVQTGDSLRLSCAASGRTFSSYSMGWFRQAQGKEREFVVAISSGGYKYDSVSLEGRFTISRDNTQNTVYLQINSLKPEDTAVYYCAASRAYGSGRLRLADTYDYWGQGTQVTVSS : Binding level (RU) was 225

Short answer for VEGFBII56E11 (VHH, periplasmic extract) VHH: EVQLVESGGGLVQPGDSLKLSCAFSGRTFSSYSMGWFRQAQGKEREFVVAISSSGGYIYDSVSLEGRFTISRDNTKNTVYLQTPSLKPEDAADYYCAASRAYGSSRLRLADTYDYWGQGTQVTVSS : Binding level (RU) was 76

Short answer for VEGFBII23G03 (VHH, periplasmic extract) VHH: EVQLVESGGGLVQPGDSLKLSCAFSGRTFGSYSMGWFRQAQGKEREFVVAISSSGGYIYDSVSLEGRFTISRDNSKNTVYLQTPSLKPEDTAVYYCAASRAYGSSRLRLPGTYDYWGQGTQVTVSS : Binding level (RU) was 141

The measured values listed here are drawn from patent US20170247475A1.
